These entries and their values trace back to the MegaScale stability set (Tsuboyama et al. 2023).

B1: HEEH_KT_rd6_3546 (parent)
chain: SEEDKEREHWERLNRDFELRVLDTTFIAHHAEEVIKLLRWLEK

# Variants of: B1
# assay_method_text: folding stability dG (cDNA display proteolysis); higher = more stable
# assay_setup: PBS, room temperature
Consider the following variants and their measured folding stability dG readings.
// units = kcal/mol; emit number, no label

Please review the entries below; each comes with its answer.
// query Would you kindly share the measured folding stability dG for R7K ?
// result 1.19

// query Next variant up: R39N
// result 0.829

// query Next variant up: H29V
// result 1.61

Others:
// query Would you kindly share the measured folding stability dG for V34L ?
// result 1.57

// query Next variant up: E33Q
// result 1.46
